test: Determination of the solubility (suspension shaken 24 h at room temperature, HPLC); format: physicochemical; conditions: dilute hydrochloric acid (pH 4), pH 4, aqueous buffer, thermodynamic from solid, room temperature, 24 h
Counter-ions that a name gives are not always drawn.
Please go through the items and note down their solubility at 24 h.
Only the number, expressed in µg/mL, is required.

The compound listed as CNCCCC(=O)N(C[C@H]1CN(c2ccc(N3CCOCC3=O)cc2)C(=O)O1)C(=O)c1ccc(Cl)s1 [Example 12, hydrobromide] has a reported solubility at 24 h of 350

The compound listed as CNCC(=O)OCC(=O)N(C[C@H]1CN(c2ccc(N3CCOCC3=O)cc2)C(=O)O1)C(=O)c1ccc(Cl)s1 [Example 5, hydrochloride] shows solubility at 24 h equal to 330

In plain terms, CC(C)[C@H](N)C(=O)SCC(=O)N(C[C@H]1CN(c2ccc(N3CCOCC3=O)cc2)C(=O)O1)C(=O)c1ccc(Cl)s1 [Example 10, hydrobromide] has a documented solubility at 24 h of 680

Reported solubility at 24 h of O=C(OCC(=O)N(C[C@H]1CN(c2ccc(N3CCOCC3=O)cc2)C(=O)O1)C(=O)c1ccc(Cl)s1)[C@@H]1CCCN1 [Example 4, hydrochloride] : 480

Reported solubility at 24 h for O=C(NC[C@H]1CN(c2ccc(N3CCOCC3=O)cc2)C(=O)O1)c1ccc(Cl)s1 [compound (A), reference compound] was 8.1

Looking up NCC(=O)OCC(=O)N(C[C@H]1CN(c2ccc(N3CCOCC3=O)cc2)C(=O)O1)C(=O)c1ccc(Cl)s1 [Example 1, hydrochloride] , I found its solubility at 24 h recorded as 320

Recorded solubility at 24 h (compound NCCCC[C@H](N)C(=O)OCC(=O)N(C[C@H]1CN(c2ccc(N3CCOCC3=O)cc2)C(=O)O1)C(=O)c1ccc(Cl)s1 [Example 7, dihydrochloride] ): 340

###

assay: Stability in buffer at various pH values (HPLC, 37° C., 24 h); format: physicochemical; details: buffer pH 4, 37° C., 24 h
Counter-ions that a name gives are not always drawn.
Measured Property: % Test substance after 24 h [F(t = 24 h) × 100/F(t = 0 h)] (%)
Give a bare numeral; the unit % is implied.

Value of measured % Test substance after 24 h [F(t = 24 h) × 100/F(t = 0 h)] for the entry CC(C)[C@H](N)C(=O)SCC(=O)N(C[C@H]1CN(c2ccc(N3CCOCC3=O)cc2)C(=O)O1)C(=O)c1ccc(Cl)s1 [Example 10, hydrobromide] : 99

# compound NCCCC[C@H](N)C(=O)OCC(=O)N(C[C@H]1CN(c2ccc(N3CCOCC3=O)cc2)C(=O)O1)C(=O)c1ccc(Cl)s1 [Example 7, dihydrochloride] ; its % Test substance after 24 h [F(t = 24 h) × 100/F(t = 0 h)] = 99

So for CNCCCCCC(=O)N(C[C@H]1CN(c2ccc(N3CCOCC3=O)cc2)C(=O)O1)C(=O)c1ccc(Cl)s1 [Example 18, hydrochloride] , the logged % Test substance after 24 h [F(t = 24 h) × 100/F(t = 0 h)] turned out to be 99

# compound CC(C)(N)C(=O)OCC(=O)N(C[C@H]1CN(c2ccc(N3CCOCC3=O)cc2)C(=O)O1)C(=O)c1ccc(Cl)s1 [Example 2, hydrochloride] ; its % Test substance after 24 h [F(t = 24 h) × 100/F(t = 0 h)] = 100

Lab book: % Test substance after 24 h [F(t = 24 h) × 100/F(t = 0 h)] of NCC(=O)OCC(=O)N(C[C@H]1CN(c2ccc(N3CCOCC3=O)cc2)C(=O)O1)C(=O)c1ccc(Cl)s1 [Example 1, hydrochloride] noted as 99

# % Test substance after 24 h [F(t = 24 h) × 100/F(t = 0 h)] of CC(C)[C@@H](N)C(=O)OCC(=O)N(C[C@H]1CN(c2ccc(N3CCOCC3=O)cc2)C(=O)O1)C(=O)c1ccc(Cl)s1 [Example 6, hydrochloride] = 98

Recorded result, NCCCC(=O)N(C[C@H]1CN(c2ccc(N3CCOCC3=O)cc2)C(=O)O1)C(=O)c1ccc(Cl)s1 [Example 19, hydrochloride] , % Test substance after 24 h [F(t = 24 h) × 100/F(t = 0 h)]: 97

Looking up O=C(OCC(=O)N(C[C@H]1CN(c2ccc(N3CCOCC3=O)cc2)C(=O)O1)C(=O)c1ccc(Cl)s1)[C@@H]1CCCN1 [Example 4, hydrochloride] , I see its % Test substance after 24 h [F(t = 24 h) × 100/F(t = 0 h)] listed as 100

Per the record, NCCCCCC(=O)N(C[C@H]1CN(c2ccc(N3CCOCC3=O)cc2)C(=O)O1)C(=O)c1ccc(Cl)s1 [Example 21, hydrochloride] has % Test substance after 24 h [F(t = 24 h) × 100/F(t = 0 h)] of 100

The recorded % Test substance after 24 h [F(t = 24 h) × 100/F(t = 0 h)] for CNCC(=O)OCC(=O)N(C[C@H]1CN(c2ccc(N3CCOCC3=O)cc2)C(=O)O1)C(=O)c1ccc(Cl)s1 [Example 5, hydrochloride] is 94

Sure, the documented % Test substance after 24 h [F(t = 24 h) × 100/F(t = 0 h)] for CCCCNCCCC(=O)N(C[C@H]1CN(c2ccc(N3CCOCC3=O)cc2)C(=O)O1)C(=O)c1ccc(Cl)s1 [Example 22, hydrochloride] is 98

% Test substance after 24 h [F(t = 24 h) × 100/F(t = 0 h)] reading for N[C@@H](Cc1c[nH]cn1)C(=O)OCC(=O)N(C[C@H]1CN(c2ccc(N3CCOCC3=O)cc2)C(=O)O1)C(=O)c1ccc(Cl)s1 [Example 8, dihydrochloride] : 81

Per the records, this compound ( NCCCCC(=O)N(C[C@H]1CN(c2ccc(N3CCOCC3=O)cc2)C(=O)O1)C(=O)c1ccc(Cl)s1 [Example 20, hydrochloride] ) has % Test substance after 24 h [F(t = 24 h) × 100/F(t = 0 h)] equal to 90

For CC(C)[C@H](N)C(=O)OCC(=O)N(C[C@H]1CN(c2ccc(N3CCOCC3=O)cc2)C(=O)O1)C(=O)c1ccc(Cl)s1 [Example 3, hydrochloride] the compound record lists % Test substance after 24 h [F(t = 24 h) × 100/F(t = 0 h)] as 99

###

test: Stability in buffer at various pH values (HPLC, 37° C., 24 h); assay type: physicochemical; settings: buffer pH 4, 37° C., 4 h
Counter-ions that a name gives are not always drawn.
Measured Property: % test substance after 4 h [F(t = 4 h) × 100/F(t = 0 h)] (%)
Express the result in % but write the number alone.

Record CCCCNCCCC(=O)N(C[C@H]1CN(c2ccc(N3CCOCC3=O)cc2)C(=O)O1)C(=O)c1ccc(Cl)s1 [Example 22, hydrochloride] , field % test substance after 4 h [F(t = 4 h) × 100/F(t = 0 h)]: 100

# % test substance after 4 h [F(t = 4 h) × 100/F(t = 0 h)] (molecule: NCCCC(=O)N(C[C@H]1CN(c2ccc(N3CCOCC3=O)cc2)C(=O)O1)C(=O)c1ccc(Cl)s1 [Example 19, hydrochloride] ) is 100

Short answer for CNCC(=O)OCC(=O)N(C[C@H]1CN(c2ccc(N3CCOCC3=O)cc2)C(=O)O1)C(=O)c1ccc(Cl)s1 [Example 5, hydrochloride] : % test substance after 4 h [F(t = 4 h) × 100/F(t = 0 h)] was 100

So, NCCCC[C@H](N)C(=O)OCC(=O)N(C[C@H]1CN(c2ccc(N3CCOCC3=O)cc2)C(=O)O1)C(=O)c1ccc(Cl)s1 [Example 7, dihydrochloride] ? Its % test substance after 4 h [F(t = 4 h) × 100/F(t = 0 h)] was 100

Per the record, NCCCCCC(=O)N(C[C@H]1CN(c2ccc(N3CCOCC3=O)cc2)C(=O)O1)C(=O)c1ccc(Cl)s1 [Example 21, hydrochloride] has % test substance after 4 h [F(t = 4 h) × 100/F(t = 0 h)] of 100

Value of % test substance after 4 h [F(t = 4 h) × 100/F(t = 0 h)] reported for the molecule CC(C)(N)C(=O)OCC(=O)N(C[C@H]1CN(c2ccc(N3CCOCC3=O)cc2)C(=O)O1)C(=O)c1ccc(Cl)s1 [Example 2, hydrochloride] is 100

# % test substance after 4 h [F(t = 4 h) × 100/F(t = 0 h)] of CNCCCCCC(=O)N(C[C@H]1CN(c2ccc(N3CCOCC3=O)cc2)C(=O)O1)C(=O)c1ccc(Cl)s1 [Example 18, hydrochloride] = 100

Recorded result, CC(C)[C@H](N)C(=O)OCC(=O)N(C[C@H]1CN(c2ccc(N3CCOCC3=O)cc2)C(=O)O1)C(=O)c1ccc(Cl)s1 [Example 3, hydrochloride] , % test substance after 4 h [F(t = 4 h) × 100/F(t = 0 h)]: 100

For reference, reported % test substance after 4 h [F(t = 4 h) × 100/F(t = 0 h)] for NCCCCC(=O)N(C[C@H]1CN(c2ccc(N3CCOCC3=O)cc2)C(=O)O1)C(=O)c1ccc(Cl)s1 [Example 20, hydrochloride] stands at 98

The measured % test substance after 4 h [F(t = 4 h) × 100/F(t = 0 h)] associated with CC(C)[C@H](N)C(=O)SCC(=O)N(C[C@H]1CN(c2ccc(N3CCOCC3=O)cc2)C(=O)O1)C(=O)c1ccc(Cl)s1 [Example 10, hydrobromide] reads 100

# molecule CC(C)[C@@H](N)C(=O)OCC(=O)N(C[C@H]1CN(c2ccc(N3CCOCC3=O)cc2)C(=O)O1)C(=O)c1ccc(Cl)s1 [Example 6, hydrochloride] ; its % test substance after 4 h [F(t = 4 h) × 100/F(t = 0 h)] = 100

// field: % test substance after 4 h [F(t = 4 h) × 100/F(t = 0 h)]; key: O=C(OCC(=O)N(C[C@H]1CN(c2ccc(N3CCOCC3=O)cc2)C(=O)O1)C(=O)c1ccc(Cl)s1)[C@@H]1CCCN1 [Example 4, hydrochloride] ; value = 100

Summary for this molecule, N[C@@H](Cc1c[nH]cn1)C(=O)OCC(=O)N(C[C@H]1CN(c2ccc(N3CCOCC3=O)cc2)C(=O)O1)C(=O)c1ccc(Cl)s1 [Example 8, dihydrochloride] : % test substance after 4 h [F(t = 4 h) × 100/F(t = 0 h)] is 99

% test substance after 4 h [F(t = 4 h) × 100/F(t = 0 h)] recorded for this molecule, NCC(=O)OCC(=O)N(C[C@H]1CN(c2ccc(N3CCOCC3=O)cc2)C(=O)O1)C(=O)c1ccc(Cl)s1 [Example 1, hydrochloride] , is 100
